Molecular target: T1, hPRLR.mFc (soluble dimeric human PRLR) (human)
T1 construct: dimeric PRLR construct
T1 chain: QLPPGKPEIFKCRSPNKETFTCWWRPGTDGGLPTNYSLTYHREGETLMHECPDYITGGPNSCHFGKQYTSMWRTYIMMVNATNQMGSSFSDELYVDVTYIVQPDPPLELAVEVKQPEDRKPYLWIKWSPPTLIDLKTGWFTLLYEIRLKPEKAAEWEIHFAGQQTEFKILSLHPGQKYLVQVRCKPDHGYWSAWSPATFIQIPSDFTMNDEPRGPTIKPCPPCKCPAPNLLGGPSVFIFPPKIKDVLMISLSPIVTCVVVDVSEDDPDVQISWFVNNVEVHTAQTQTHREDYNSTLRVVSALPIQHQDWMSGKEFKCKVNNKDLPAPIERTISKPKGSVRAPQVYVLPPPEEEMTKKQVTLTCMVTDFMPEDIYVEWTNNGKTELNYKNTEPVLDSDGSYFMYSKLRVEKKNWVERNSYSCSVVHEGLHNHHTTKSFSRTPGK
Experiment: SPR Biacore, 25 C, mAb capture
Recorded measurements of kon, one per entry
Value expressed in M⁻¹ s⁻¹; do not type the unit.

H1H6959N2 (antibody, human IgG1, V domains shown, Tested with human IgG1 Fc (H1H); also called H2M6959N2) VH: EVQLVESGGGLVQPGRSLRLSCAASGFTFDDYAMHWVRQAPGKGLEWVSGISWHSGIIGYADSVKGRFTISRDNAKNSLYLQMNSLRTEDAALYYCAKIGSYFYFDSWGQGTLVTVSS VL: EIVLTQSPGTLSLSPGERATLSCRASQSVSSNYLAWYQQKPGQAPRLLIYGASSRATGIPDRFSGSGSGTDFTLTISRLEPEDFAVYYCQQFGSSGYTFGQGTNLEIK    359000

As a next step, examine the binder that follows.
Given item H1H6790P (antibody, human IgG1, V domains shown, Human IgG1 Fc (H1H)) VH: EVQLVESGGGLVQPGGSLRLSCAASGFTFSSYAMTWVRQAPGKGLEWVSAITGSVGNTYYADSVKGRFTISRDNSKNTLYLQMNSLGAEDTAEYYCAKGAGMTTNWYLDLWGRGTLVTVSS VL: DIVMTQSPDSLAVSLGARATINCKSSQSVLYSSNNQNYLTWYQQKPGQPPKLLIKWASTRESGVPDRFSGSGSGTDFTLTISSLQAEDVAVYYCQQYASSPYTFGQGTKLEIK , the value recorded as its kon is 542000
